Would you mind telling me the reported pIC50 of each entry?
Test system: ES8;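 also: growth inhibition of human ES8 cells, read out with a cell viability assay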
test-method-notes: cells
Format: functional, cell-based
condition-details: Homo sapiens
Description: SANGER: Inhibition of human ES8 cell growth in a cell viability assay.
Bear in mind: pIC50 is minus log10 of a mol/L concentration; give just that figure.

Record lookup: for ES8, what pIC50 belongs to Cn1c(=O)n(-c2ccc(C(C)(C)C#N)cc2)c2c3cc(-c4cnc5ccccc5c4)ccc3ncc21 [DACTOLISIB] ?
7.96

Record lookup: for ES8, what pIC50 belongs to Fc1cc(-c2cc[nH]/c(=N/c3ccc(-n4cnc(N5CCOCC5)n4)cc3)n2)cc(N2CCOCC2)c1 ?
6.87

Record lookup: for ES8, what pIC50 belongs to CC[C@]1(O)C[C@@H]2CN(CCc3c([nH]c4ccccc34)[C@@](C(=O)OC)(c3cc4c(cc3OC)N(C)[C@H]3[C@@](O)(C(=O)OC)[C@H](OC(C)=O)[C@]5(CC)C=CCN6CC[C@]43[C@@H]65)C2)C1 [VINBLASTINE] ?
8.49

Record lookup: for ES8, what pIC50 belongs to CCn1c(-c2nonc2N)nc2cnc(Oc3cccc(NC(=O)c4ccc(OCCN5CCOCC5)cc4)c3)cc21 [GSK-269962A] ?
6.09
